testDetails: Pharmacokinetics test in beagle dogs (capsule by gavage, plasma LC/MS/MS)
Format: in vivo
measurementParameters: capsule by gavage, dose 2.5 mg/kg, plasma
Where a name gives a salt, the structure may show the parent alone.
parameterMeasured: AUClast

# compound, AUClast
data = [
    ("COc1ncc(-c2ccn3ncc(C#N)c3c2)cc1NS(=O)(=O)c1ccc(F)cc1F [crystalline form C of mono-sodium salt]", "5700 ng·h/mL"),
    ("COc1ncc(-c2ccn3ncc(C#N)c3c2)cc1NS(=O)(=O)c1ccc(F)cc1F [crystalline form A of mono-choline salt]", "9130 ng·h/mL"),
]

# ---- query compound ----
Inquiry: I am curious: what AUClast value has been reported for COc1ncc(-c2ccn3ncc(C#N)c3c2)cc1NS(=O)(=O)c1ccc(F)cc1F [crystalline form B of mono-sodium salt] ?
Reply text: 9370 ng·h/mL
